species: Rattus norvegicus; experiment: Open TG-GATES - Regimen: Daily Repeat; type: toxicity, organism-based, Sprague-Dawley; design: regimen Daily Repeat, gender Male, age 6 weeks; details: in vivo, po, 0 mg/kg, 72 h, tissue Plasma, route gavage, dose level Control, time 3 day
Experimental Readout: TP (g/dL)
Reply with just the number (in g/dL).

Here is how some compounds turned out for TP.
1. CC(S)C(=O)NCC(=O)O (stereo not drawn) [TIOPRONIN]    5.5
2. COc1ccc([C@@H]2Sc3ccccc3N(CCN(C)C)C(=O)[C@@H]2OC(C)=O)cc1 [DILTIAZEM]    5.5

For this compound ( CCCCNC(=O)NS(=O)(=O)c1ccc(C)cc1 [TOLBUTAMIDE] ), measured TP is 5.7

----------
Documented GLC across a set of molecules
species: Rattus norvegicus; experiment: Open TG-GATES - Regimen: Daily Repeat; assay type: toxicity, organism-based, Sprague-Dawley; design: regimen Daily Repeat, gender Male, age 6 weeks; conditions: in vivo, po, 300 mg/kg, 72 h, tissue Plasma, route gavage, dose level Middle, time 3 day
Reply with just the number (in mg/dL).

Here is how some molecules turned out for GLC.
1) CCCCNC(=O)NS(=O)(=O)c1ccc(C)cc1 [TOLBUTAMIDE]    176.6
2) CC(S)C(=O)NCC(=O)O (centres undefined)    187.4
3) CC(=O)[C@@]1(O)CC[C@H]2[C@@H]3C=C(Cl)C4=CC(=O)CC[C@]4(C)[C@H]3CC[C@@]21C    194.2

In the following, a different molecule is considered.
For this molecule ( `O=C(O)c1ccccc1Nc1ccccc1` ), measured GLC is 183

----------
Documented APTT across a set of compounds
species: Rattus norvegicus; assay: Open TG-GATES - Regimen: Daily Repeat; format: toxicity, organism-based, Sprague-Dawley; design: regimen Daily Repeat, gender Male, age 6 weeks; conditions: in vivo, po, 1000 mg/kg, […], tissue Blood, route gavage, dose level High, time 28 day
Reply with just the number (in s).

1) O=C(O)c1ccccc1Nc1ccccc1 [FENAMIC ACID]    17.1
2) CCCCNC(=O)NS(=O)(=O)c1ccc(C)cc1 [TOLBUTAMIDE]    25
3) CC(S)C(=O)NCC(=O)O (centres undefined) [TIOPRONIN]    24.2

For this compound ( CC(=O)[C@@]1(O)CC[C@H]2[C@@H]3C=C(Cl)C4=CC(=O)CC[C@]4(C)[C@H]3CC[C@@]21C [CHLORMADINONE] ), measured APTT is 29.7

----------
organism: Rattus norvegicus; test: Open TG-GATES - Regimen: Single; format: toxicity, organism-based, Sprague-Dawley; design: regimen Single, gender Male, age 6 weeks; details: in vivo, po, 0 mg/kg, 6 h, tissue Blood, route gavage, dose level Control
Experimental Readout: MCHC (%)
Reply with just the number (in %).

1) CCCCNC(=O)NS(=O)(=O)c1ccc(C)cc1 [TOLBUTAMIDE]    32.5

For this molecule ( `CCN(CC)C(=S)SSC(=S)N(CC)CC` ), measured MCHC is 32.4

For this molecule ( `CN(C/C=C/C#CC(C)(C)C)Cc1cccc2ccccc12` ), measured MCHC is 33.8

For this molecule ( `O=C(O)c1ccccc1Nc1ccccc1` ), measured MCHC is 33.1

For this molecule ( NS(=O)(=O)c1cc(C(=O)O)c(NCc2ccco2)cc1Cl [FUROSEMIDE] ), measured MCHC is 33.1

For this molecule ( `Nc1ccc(Cc2ccc(N)cc2)cc1` ), measured MCHC is 34.1
